FYI, the data here is from patent US5332743A.

Some compounds, each annotated with its measured change in vivo at 5 mg/kg.
System: Conditioned Avoidance Responding (Rat)
experiment: Block of Conditioned Avoidance Responding (Rat) test (CAR)
Format: in vivo
testSettings: rat, 5 mg/kg IP; negative number = blockade of CAR; -20% is the minimum for active; read-out: CAR 5 mg/kg (IP) (mean % change in CAR)
Your answer should be a plain number; it is taken to be in %.

>>> df
                                   compound       experimentalendpoint  quantityunit  endpointvalue
0  COc1ccccc1N1CCN(Cc2cccc(C(O)C(C)C)c2)CC1 (centres unmarked)  change in vivo at 5 mg/kg             %          -98.8

What does the record list as change in vivo at 5 mg/kg for CCC(C)(O)c1cccc(CN2CCN(c3ccccc3OC)CC2)c1 (centres unmarked) ?
-86

Next up: COc1ccccc1N1CCN(Cc2cccc(C(O)c3ccccc3)c2)CC1 (centres unmarked)
-64.6

And then COc1ccccc1N1CCN(Cc2ccc(C(O)c3ccccc3)cc2)CC1 (centres unmarked) , what is it?
-99.4

Now consider COc1ccccc1N1CCN(Cc2cccc(C(O)C3CCCCC3)c2)CC1 (centres unmarked) and answer again.
-92.9

---

Test system: Conditioned Avoidance Responding (Rat)
experiment: Block of Conditioned Avoidance Responding (Rat) test (CAR)
Assay type: in vivo
testSettings: rat, at CAR 5 mg/kg IP
experimentalEndpoint: Escape Loss (% failures to escape, group mean) (%)
Express the result in % but write the number alone.

                                   molecule                         targetundertest  endpointvalue
0  CCC(C)(O)c1cccc(CN2CCN(c3ccccc3OC)CC2)c1 (stereo not drawn) [Compound 6]  Conditioned Avoidance Responding (Rat)              2

Find the recorded Escape Loss (% failures to escape, group mean) belonging to COc1ccccc1N1CCN(Cc2ccc(C(O)c3ccccc3)cc2)CC1 (stereo not drawn) [Compound 9] and report it.
32

Next up: CC(C)Oc1ccccc1N1CCN(Cc2cccc(CO)c2)CC1 [Compound 4]
13

What do you have for COc1ccccc1N1CCN(Cc2cccc(C(O)C(C)C)c2)CC1 (stereo not drawn) [Compound 7] ?
12

Now the molecule COc1ccccc1N1CCN(Cc2cccc(C(O)c3ccccc3)c2)CC1 (stereo not drawn) [Compound 5]
2

Same lookup for COc1ccccc1N1CCN(Cc2cccc(C(O)C3CCCCC3)c2)CC1 (stereo not drawn) [Compound 8] , please.
2

---

targetUnderTest: dopamine D2 receptor (Rattus norvegicus)
Construct: P2 fraction (synaptosomal membranes) prepared from male, Wistar rats; from tissue; host or cells: striatum of male Wistar rats, P2 fraction (synaptosomal membranes)
Sequence (P61169 whole entry): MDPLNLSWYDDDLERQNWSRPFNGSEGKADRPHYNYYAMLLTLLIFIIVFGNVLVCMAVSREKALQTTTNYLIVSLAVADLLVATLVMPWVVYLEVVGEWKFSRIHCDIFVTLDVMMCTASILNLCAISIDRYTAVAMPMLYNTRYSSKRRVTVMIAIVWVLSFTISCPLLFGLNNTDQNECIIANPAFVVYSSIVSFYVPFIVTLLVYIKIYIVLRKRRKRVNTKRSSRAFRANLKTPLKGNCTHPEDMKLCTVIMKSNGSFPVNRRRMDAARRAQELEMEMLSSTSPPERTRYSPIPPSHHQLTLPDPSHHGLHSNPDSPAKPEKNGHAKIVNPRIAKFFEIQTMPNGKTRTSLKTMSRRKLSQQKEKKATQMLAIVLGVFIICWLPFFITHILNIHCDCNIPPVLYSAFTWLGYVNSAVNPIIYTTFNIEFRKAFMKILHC
experiment: Receptor Binding Assay: dopamine D2 binding, 3H-spiperone, striatal P2 fraction
testSettings: 3H-spiperone 0.05 nM, 45 min at 37° C., read-out: D-2 Binding K-I
Reported values of log10(Ki) for individual entries
A difference of one corresponds to tenfold Ki; all values are log10 with Ki in nM.

These recorded examples may help you get a feel for the data.
                                   compound  experimentalendpoint  endpointvalue
0  COc1ccccc1N1CCN(Cc2cccc(C(O)C3CCCCC3)c2)CC1 (stereo not drawn)             log10(Ki)           1.20
1     CC(C)Oc1ccccc1N1CCN(Cc2cccc(CO)c2)CC1             log10(Ki)           2.48
2  COc1ccccc1N1CCN(Cc2cccc(C(O)c3ccccc3)c2)CC1 (stereo not drawn)             log10(Ki)           1.94
3  COc1ccccc1N1CCN(Cc2ccc(C(O)c3ccccc3)cc2)CC1 (stereo not drawn)             log10(Ki)           1.72
4  COc1ccccc1N1CCN(Cc2cccc(C(O)C(C)C)c2)CC1 (stereo not drawn)             log10(Ki)           1.95

Pending compound:
For the compound shown here, CCC(C)(O)c1cccc(CN2CCN(c3ccccc3OC)CC2)c1 (stereo not drawn) , give the reported log10(Ki).
2.30
